Assay: Tmax in male Wistar rat at 20 mg/kg, po measured upto 32 hrs by high-performance liquid chromatography
Type: ADME, organism-based
Conditions: in vivo
assay_readout: Tmax (h)
Give just the number in h; leave the unit off.

State its Tmax for this compound: "COc1cc2ncnc(N3CCN(Cc4ccccc4)CC3)c2cc1OC"
3

====

Biological target: Beta-secretase 1 (Homo sapiens)
Sequence (P56817 whole entry): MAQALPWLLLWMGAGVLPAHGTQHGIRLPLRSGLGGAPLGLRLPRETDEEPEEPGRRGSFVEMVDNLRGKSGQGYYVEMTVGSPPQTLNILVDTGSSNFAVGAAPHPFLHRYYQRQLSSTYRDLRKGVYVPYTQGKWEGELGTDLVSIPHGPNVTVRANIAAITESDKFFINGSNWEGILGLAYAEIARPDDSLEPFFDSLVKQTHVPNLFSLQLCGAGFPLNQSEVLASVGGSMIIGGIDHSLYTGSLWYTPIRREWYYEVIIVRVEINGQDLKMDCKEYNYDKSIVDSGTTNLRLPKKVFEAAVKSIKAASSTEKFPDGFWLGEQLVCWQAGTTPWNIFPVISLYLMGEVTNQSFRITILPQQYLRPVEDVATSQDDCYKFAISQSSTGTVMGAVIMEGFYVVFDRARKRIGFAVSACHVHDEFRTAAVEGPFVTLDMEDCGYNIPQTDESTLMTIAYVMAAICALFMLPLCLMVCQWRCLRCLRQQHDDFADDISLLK
Experiment: Inhibition of human BACE-1 by FRET assay
assay_readout: IC50
# answer = value followed by unit

Quote Beta-secretase 1 (Homo sapiens) IC50 for entry "FC(F)(F)c1ccc(-c2nnc(NC3CCN(Cc4ccccc4)CC3)o2)cc1" .
0.146 µM

====

Biological target: Acetylcholinesterase (Homo sapiens, UniProt P22303)
Sequence (P22303 whole entry): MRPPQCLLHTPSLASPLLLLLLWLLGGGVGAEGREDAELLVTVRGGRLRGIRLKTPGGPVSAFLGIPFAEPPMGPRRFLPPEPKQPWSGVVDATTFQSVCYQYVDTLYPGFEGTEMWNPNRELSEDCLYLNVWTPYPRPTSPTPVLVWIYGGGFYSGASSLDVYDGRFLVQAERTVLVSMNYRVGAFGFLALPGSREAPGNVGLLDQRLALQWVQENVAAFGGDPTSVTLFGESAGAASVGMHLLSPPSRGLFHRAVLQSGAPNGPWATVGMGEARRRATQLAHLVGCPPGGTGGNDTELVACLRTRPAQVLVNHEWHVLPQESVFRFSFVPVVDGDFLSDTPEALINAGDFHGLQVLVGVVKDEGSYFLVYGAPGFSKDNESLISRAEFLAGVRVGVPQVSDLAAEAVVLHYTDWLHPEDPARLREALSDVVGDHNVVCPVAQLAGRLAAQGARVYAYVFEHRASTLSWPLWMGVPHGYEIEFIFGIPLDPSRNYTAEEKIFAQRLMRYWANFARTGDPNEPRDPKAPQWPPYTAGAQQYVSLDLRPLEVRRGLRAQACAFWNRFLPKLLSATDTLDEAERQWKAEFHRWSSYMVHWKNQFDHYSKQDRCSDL
assay_readout: pKi
Expect pKi as a plain number equal to -log10 of the molar concentration.

Query pKi for "COc1cc2ncnc(N3CCN(Cc4ccccc4)CC3)c2cc1OC"
6.61

====

Test: Cytotoxicity against human SH-SY5Y cells by MTT assay
Format: toxicity, cell-based
assay_readout: IC50 (µM)
Report the value in µM with no unit label.

Look up and report measured IC50 for this entry: CC1c2cc(Oc3ccccc3)ccc2N=C(N)N1CCCC(=O)N(Cc1ccnn1C)C1CCCCC1 (stereo unspecified)
11.8

====

Target: Acetylcholinesterase (Homo sapiens, UniProt P22303)
Assay: Inhibition of human AChE
assay_readout: pIC50
Remember, pIC50 is on a log scale: it is -log10 of the molar concentration.

Using known records, supply pIC50 for "c1ccc(CN2CCN(c3nc(-c4ccccc4)nc4ccccc34)CC2)cc1"
6.72

====

Please respond with reported IC50 for every item in the list.
Target: Acetylcholinesterase (Homo sapiens, UniProt P22303)
Assay: Inhibition of human erythrocyte AChE using acetylthiocholine iodide as substrate preincubated for 30 mins followed by substrate addition and measured after 30 mins by DTNB based Ellman's method
// units = nM; emit number, no label

Please list IC50 recorded for the compound "COc1cc2ncnc(N3CCN(c4ccccc4)CC3)c2cc1OC"
1010

Provide only the value of recorded IC50 for "COc1cc2ncnc(N3CCN(c4ccc(F)cc4)CC3)c2cc1OC"
1040

Recall and state the measured IC50 for "COc1cc2ncnc(N3CCN(Cc4ccccc4)CC3)c2cc1OC" .
283

Look up and state reported IC50 for "COc1cc2ncnc(N3CCN(c4ccccc4[N+](=O)[O-])CC3)c2cc1OC"
914

State its IC50: "COc1cc2ncnc(N3CCN(C(C)=O)CC3)c2cc1OC"
1190

Look up and report measured IC50 for this entry: "COc1cc2ncnc(N3CCN(c4ccc(C)cc4)CC3)c2cc1OC"
1170

Provide IC50 value for the following compound: "COc1cc2ncnc(N3CCN(Cc4ccc(C)cc4)CC3)c2cc1OC"
1020
